- Test system: TERT-RPE1
- assay: Here: values are normalized to the negative (DMSO; defined as 0% autophagy induction) and positive (250nM Torin1; mTOR inhibitor; defined as maximal inducer of autophagy = 100%) control compounds and represented as % of autophagy induction. […] The impact of autophagy induction on cells is complex and depends on the affected target. As such, the magnitude of a phenotype may not be equally mirrored in the %-value of autophagy induction and vice versa. The dynamics of the induction may indicate the mode of activation: e.g. activation via phosphorylation or a signaling cascade may occur fast, while activation via transcription factors may take considerably longer. […] Of note, treatment concentrations may be sub-optimal for specific compounds, leading to false negative annotations.
- Assay type: functional, Homo sapiens
- study.conditions: Compound Concentration 0.5 uM, Timepoint 36 hours, Culturing Media DMEM/F12 (1:1), 1 % Penicillin/Streptomycin, 10% Fetal bovin serum Add-On: No, Screening Media Control DMEM/F12 (1:1), Screening Media Samples DMEM/F12 (1:1)
reported.metric: autophagy induction (%)

INSERT INTO measurements (compound, reported_metric, unit_text, meas_value) VALUES
  ('CCCCN(CCCC)C(=O)CN1C[C@@H](c2ccc3c(c2)OCO3)[C@H](C(=O)O)[C@H]1c1ccc(OC)cc1', 'autophagy induction', '%', -10.2076),
  ('Cc1cc(C)cc(C(=O)N(C)[C@H](Cc2ccc(-c3ccccc3)cc2)C(=O)N[C@@H](Cc2c[nH]c3ccccc23)C(=O)O)c1', 'autophagy induction', '%', -9.628),
  ('CN(C)S(=O)(=O)c1ccc(NC(=S)N2CCC(C(O)(c3ccccc3)c3ccccc3)CC2)cc1', 'autophagy induction', '%', -7.846),
  ('COc1ccccc1CN[C@H]1C2CCN(CC2)[C@H]1C(c1ccccc1)c1ccccc1', 'autophagy induction', '%', -14.454),
  ('COc1ccc(C2(O)OC(=O)C(c3ccc4c(c3)OCO4)=C2Cc2cc(OC)c(OC)c(OC)c2)cc1 (stereo unspecified)', 'autophagy induction', '%', -1.3569),
  ('C[C@H](Cc1cc2c(c(C(N)=O)c1)N(CCCO)CC2)NCCOc1ccccc1OCC(F)(F)F', 'autophagy induction', '%', -8.97),
  ('COc1ccc(S(=O)(=O)c2cc(OC)ccc2S(=O)(=O)c2ccc([C@H](C)NS(C)(=O)=O)cc2)cc1', 'autophagy induction', '%', -9.847),
  ('O=C(Cc1ccccc1)Nc1nc2ccc(Cl)cc2c2nc(-c3ccco3)nn12', 'autophagy induction', '%', -15.7815),
  ('CCc1cc(C(C)=O)c(O)cc1OCCCCCC(C)(C)c1nn[nH]n1', 'autophagy induction', '%', -14.7708),
  ('N#Cc1c(N)nc(SCC(N)=O)c(C#N)c1-c1ccc(OCC2CC2)cc1', 'autophagy induction', '%', -3.4426),
  ('CCOC(=O)c1cc(C#N)c(N2CCC(C(=O)NS(=O)(=O)Cc3ccccc3)CC2)nc1C', 'autophagy induction', '%', -8.825),
  ('C[C@H](CO)Nc1nc(SCc2cccc(Cl)c2F)nc2[nH]c(=O)sc12', 'autophagy induction', '%', -15.2456),
  ('CS(=O)(=O)NC[C@H]1CC[C@H](Nc2nc3c(s2)CCSc2ccccc2-3)CC1', 'autophagy induction', '%', -9.381),
  ('COC1CCN(c2cccc(-c3cc(NC(C)=O)nc(-n4nc(C)cc4C)n3)n2)CC1', 'autophagy induction', '%', -12.5665),
  ('Cc1csc(NC(=O)c2cc(F)cc(Oc3cncnc3)c2)n1', 'autophagy induction', '%', -15.1452),
  ('N#Cc1c[nH]c2c(C(=O)N3CCN(CCc4ccc(F)cc4)CC3)cccc12', 'autophagy induction', '%', -10.0141);
